biological target: human TLR7 (Homo sapiens, UniProt Q9NYK1); construct: TLR7 in pUNO vector, blasticidin selection; test: Human TLR7 Assay (SEAP reporter in HEK293 cells); conditions: HEK293 cell line expressing human TLR7 and pNiFty2-SEAP reporter, overnight incubation at 37° C., 0.1% DMSO; read-out: hTLR7 EC50;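 also: Read-out is secreted alkaline phosphatase made under an NFkB/ELAM-1 composite promoter, reporting TLR7-triggered NFkB activation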
Sequence (Q9NYK1 27-1049): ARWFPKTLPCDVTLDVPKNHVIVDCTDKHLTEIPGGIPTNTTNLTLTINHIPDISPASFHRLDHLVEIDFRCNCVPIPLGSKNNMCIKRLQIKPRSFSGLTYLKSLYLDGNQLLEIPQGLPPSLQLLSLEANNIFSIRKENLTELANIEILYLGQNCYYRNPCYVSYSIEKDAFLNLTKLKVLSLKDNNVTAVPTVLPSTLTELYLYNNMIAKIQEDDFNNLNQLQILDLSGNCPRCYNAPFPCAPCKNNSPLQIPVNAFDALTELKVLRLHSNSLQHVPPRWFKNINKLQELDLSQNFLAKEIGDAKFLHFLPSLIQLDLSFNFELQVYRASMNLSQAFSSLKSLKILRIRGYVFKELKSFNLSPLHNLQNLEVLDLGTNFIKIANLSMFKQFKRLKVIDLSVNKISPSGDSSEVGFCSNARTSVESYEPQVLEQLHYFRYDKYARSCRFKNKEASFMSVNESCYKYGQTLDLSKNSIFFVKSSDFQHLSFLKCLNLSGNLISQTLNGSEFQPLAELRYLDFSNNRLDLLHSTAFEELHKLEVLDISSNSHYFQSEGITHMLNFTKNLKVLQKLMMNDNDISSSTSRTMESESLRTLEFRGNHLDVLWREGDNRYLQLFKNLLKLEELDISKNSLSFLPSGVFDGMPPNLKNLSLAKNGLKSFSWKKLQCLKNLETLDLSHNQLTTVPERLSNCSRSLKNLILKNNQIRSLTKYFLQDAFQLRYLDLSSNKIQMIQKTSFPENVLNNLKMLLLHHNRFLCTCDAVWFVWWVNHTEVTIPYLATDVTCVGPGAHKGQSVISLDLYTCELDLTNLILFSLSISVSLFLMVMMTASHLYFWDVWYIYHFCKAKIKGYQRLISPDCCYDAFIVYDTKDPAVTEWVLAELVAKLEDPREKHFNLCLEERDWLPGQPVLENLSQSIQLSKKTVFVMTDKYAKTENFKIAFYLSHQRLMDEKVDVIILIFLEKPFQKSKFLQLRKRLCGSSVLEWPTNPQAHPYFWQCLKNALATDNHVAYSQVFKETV
pEC50: −log10 of the molar value.
Listing of entries alongside the reported pEC50.
measure: pEC50

compound: CCN(CC)CC(=O)N(CCCn1c(CCOC)nc2c(N)nc3ccccc3c21)Cc1ccccc1OCC(=O)OC [Example 40]
measure: pEC50
numericValue: 6.61
--
compound: CCCCc1nc2c(N)nc3ccccc3c2n1CCCN(Cc1cccc(OC(C)(C)C(=O)OC)c1)C(=O)CN1CCCC1 [Example 169]
measure: pEC50
numericValue: 6.81
--
compound: CCC(Oc1cccc(CN(CCCn2c(CCOC)nc3c(N)nc4ccccc4c32)C(=O)CN(CC)CC)c1)C(=O)OC (stereo not shown) [Example 70]
measure: pEC50
numericValue: 7.59
--
compound: CCN(CC)CC(=O)N(CCCn1c(CCOC)nc2c(N)nc3ccccc3c21)Cc1cccc(OCC(=O)OC2CCOCC2)c1 [Example 82]
measure: pEC50
numericValue: 6.94
--
compound: CCCCc1nc2c(N)nc3ccccc3c2n1CCCN(Cc1cccc(OC(C)(C)C(=O)OCC)c1)C(=O)CN(C)C [Example 155]
measure: pEC50
numericValue: 6.63
--
compound: CCCCc1nc2c(N)nc3ccccc3c2n1CCCN(Cc1cccc(OCC(=O)OC(C)C)c1)C(=O)CN(C)C [Example 159]
measure: pEC50
numericValue: 6.86
--
compound: COCCc1nc2c(N)nc3ccccc3c2n1CCCCNC(=O)N(CCN1CCCCC1)Cc1ccc(F)c(OCC(=O)OC(C)C)c1 [Example 142]
measure: pEC50
numericValue: 7.24
